These measurements were taken from paper PMC5708365.

Catalogue of IC50 readings, one per entry.
# TEST_SYSTEM: G9a (Homo sapiens, UniProt Q96KQ7)
# Sequence (Q96KQ7 1-1210): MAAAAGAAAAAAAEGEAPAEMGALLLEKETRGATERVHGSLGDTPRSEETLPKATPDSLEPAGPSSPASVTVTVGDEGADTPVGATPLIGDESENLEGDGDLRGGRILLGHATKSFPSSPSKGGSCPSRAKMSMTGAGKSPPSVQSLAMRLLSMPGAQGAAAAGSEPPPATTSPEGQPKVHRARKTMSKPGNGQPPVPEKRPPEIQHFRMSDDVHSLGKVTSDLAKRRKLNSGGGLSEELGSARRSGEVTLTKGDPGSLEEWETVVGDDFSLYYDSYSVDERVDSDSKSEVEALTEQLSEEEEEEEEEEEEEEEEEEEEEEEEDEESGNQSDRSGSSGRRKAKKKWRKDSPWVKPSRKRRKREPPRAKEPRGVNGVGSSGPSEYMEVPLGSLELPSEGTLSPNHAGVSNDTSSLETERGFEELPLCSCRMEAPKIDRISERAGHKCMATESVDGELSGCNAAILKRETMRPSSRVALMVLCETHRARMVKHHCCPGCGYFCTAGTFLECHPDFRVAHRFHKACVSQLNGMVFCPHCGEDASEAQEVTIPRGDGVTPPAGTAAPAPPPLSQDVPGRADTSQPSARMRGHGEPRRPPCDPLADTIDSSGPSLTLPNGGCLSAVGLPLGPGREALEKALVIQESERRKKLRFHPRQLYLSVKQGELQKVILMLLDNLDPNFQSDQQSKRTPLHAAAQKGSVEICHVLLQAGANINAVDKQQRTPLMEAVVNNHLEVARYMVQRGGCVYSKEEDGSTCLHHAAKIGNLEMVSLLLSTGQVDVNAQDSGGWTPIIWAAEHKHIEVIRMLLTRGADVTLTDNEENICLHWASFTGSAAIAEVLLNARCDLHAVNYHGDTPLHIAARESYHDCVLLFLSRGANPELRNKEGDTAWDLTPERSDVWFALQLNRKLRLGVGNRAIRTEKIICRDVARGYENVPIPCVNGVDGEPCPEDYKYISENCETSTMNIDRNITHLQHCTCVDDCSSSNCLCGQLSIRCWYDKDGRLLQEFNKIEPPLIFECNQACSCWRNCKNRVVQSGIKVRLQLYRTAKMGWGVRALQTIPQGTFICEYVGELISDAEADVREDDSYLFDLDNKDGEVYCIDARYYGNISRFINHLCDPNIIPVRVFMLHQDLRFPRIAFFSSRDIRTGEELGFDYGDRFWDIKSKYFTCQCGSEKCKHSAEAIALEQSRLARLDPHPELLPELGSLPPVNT
# EXPERIMENTAL_SETUP: read-out: G9a IC50; SPA, 5 nM G9a, H3 1-25 peptide 0.8 μM, 3H-SAM 8 μM
MEASURED_METRIC: IC50

>>> df
                                   molecule  measured_metric    reading
0  COc1cc2c(NC3CCN(Cc4ccccc4)CC3)nc(N3CCN(C)CC3)nc2cc1OCc1ccccc1             IC50  ~10000 nM
1  CCCCCOc1cc2nc(N3CCN(C)CC3)nc(NC3CCN(Cc4ccccc4)CC3)c2cc1OC             IC50   ~1000 nM
2  COc1cc2nc(N3CCCCC3)nc(NC3CCN(Cc4cccc(F)c4)CC3)c2cc1OC             IC50   ~1000 nM
3  COc1cc2nc(N3CCCCC3)nc(NC3CCN(Cc4ccccc4C)CC3)c2cc1OC             IC50   ~1000 nM
4  COc1cc2nc(N3CC(C)CC(C)C3)nc(NC3CCN(Cc4ccccc4)CC3)c2cc1OC (centres unmarked)             IC50  ~10000 nM
